Target: Torsin-1A (Homo sapiens)
Assay: torsin A binders from cell lysate, primary screen, small-molecule microarray, wild-type, 635/667 nm (AID 1149)
Conditions: COS7 hTOR1A-WT lysate, 635 nm fluorescence, higher = more signal
observed-property: composite z-score
Field format: numeric only.

COCCOC(=O)N1C(=O)[C@@]2(c3cc(C#CCNC(N)=O)ccc31)[C@H](C(=O)Nc1nc3ccccc3s1)[C@H]1C(=O)O[C@H](c3ccccc3)[C@H](c3ccccc3)N1[C@@H]2c1ccc(O)cc1 = -0.227

Find the measured composite z-score of COC(=O)C1=CC(c2ccc(CO)cc2)=CC(C2CC2)N(Cc2cc3c(cc2Br)OCO3)C=C1C(=O)OC (stereo not given) and report it.
0.312

Find the measured composite z-score of CC(C)Cc1ccc(CN2CC[C@@H](NC(=O)c3ccccc3)C2)cc1 and report it.
0.205

Find the measured composite z-score of CCN1C(=O)C2CC(=O)C3C(CN(S(=O)(=O)c4ccc(C)cc4)C3c3ccc(C)cc3)C2C1=O (stereo not given) and report it.
0.364
